Tested on: ACHN renal
Assay Details: NCI-60 one-dose screen, 48 h
Test Parameters: 10 µM unless noted
About 83,000 compounds went through this panel and 20% of them were active in at least one assay; those are over-represented in the sample as a whole. Calls of active or inactive are those of the source. Rule for the calls: active = growth percent below 10; inactive = the rest.
Give your call using only these classes: True = active, False = inactive

Below, 3 compounds whose answers are already recorded.
Molecule	Group
O=C1Nc2c(C(=O)O)cccc2/C1=N/c1n[nH]c(=S)s1	False
COc1ccc(/C=C/c2ccc3ccccc3n2)c(OC)c1	False
N#Cc1c(Nc2ccc(N3CCOCC3)cc2)nc(SCC(=O)c2ccc(Br)cc2)nc1-c1ccccc1	False

Q: How was COc1ccc(C[n+]2c3ccccc3n3c4ccc(N)cc4ccc32)c(OC)c1OC classified in this test?
A: False

Q: Test call, this compound: Cc1ccnc(Nc2ccc([N+](=O)[O-])c(NCCN3CCOCC3)n2)c1
A: False

Q: Could you check what this test reported for C=C1C(=O)O[C@H]2[C@H]1CC/C(CNC(=O)c1c[nH]c3ccc(F)cc13)=C\CC[C@@]1(C)O[C@@H]21 ?
A: True

---

Tested on: MALME-3M melanoma
Assay Details: NCI-60 one-dose screen, 48 h (100 = growth as untreated, 0 = no growth, -100 = all killed)
Test Parameters: 10 µM unless noted
About 83,000 compounds went through this panel and 20% of them were active in at least one assay; those are over-represented in the sample as a whole.
Measured Metric: growth (%)
Respond with the bare value in %.

// below: answered compounds
Molecule	Unit Name	growth
CCN(CC)CCCOc1ccc2ncnc(Nc3ccc(Oc4cccc(C(F)(F)F)c4)c(Cl)c3)c2c1	%	-76.2
CSC1=Nc2c(c(C)c(-c3ccccc3)n2CCCC(=O)O)C2=NC(=O)C[C@H](C)N12	%	102

Read the next record carefully.
Q: Please give the measured growth for this compound: COc1cc(OC)c(C(=O)C(CN(C)C)CN(C)C)cc1OC
A: -87.8

---

Tested on: SNB-19 CNS
Assay Details: NCI-60 one-dose screen, 48 h
Test Parameters: 10 µM unless noted
The panel holds about 83,000 compounds, 20% with a hit somewhere; the sample as a whole holds those more often. The source made the active and inactive calls. Rule for the calls: active = growth percent below 10; inactive = the rest.
Permitted responses: true (1) for active, false (0) for inactive

Reference set (5 entries):
Compound	Group
COc1ccc(/C=C(/c2ccccc2)[N+](=O)[O-])c(OC)c1	true (1)
CCn1c(-c2cc3c([nH]c4ccccc43)c(-c3cccc(O)c3)n2)n[nH]c1=S	false (0)
O=C1Nc2c(C(=O)O)cccc2/C1=N/c1n[nH]c(=S)s1	false (0)
Cc1ccc(C2CC(c3nc(-c4ccc(Cl)cc4)oc3C)=NN2C(=O)c2ccncc2)cc1 (stereo unspecified)	false (0)
CCc1ccc(CCC(=O)Nc2ncc(Cc3ccccc3)s2)o1	false (0)

Q: Write down the call the test reported for this compound. Item: COc1ccc(C(=O)/C=C/c2ccc(N3CCCCC3)cc2)cc1OC
A: false (0)

Q: Write down the call the test reported for this compound. Item: CC(C)=CCNc1ncnc2c1ncn2C1OC(CO)C(O)C1O (stereo unspecified)
A: false (0)

Q: Could you kindly confirm the outcome this assay logged for Cn1cc(-c2ccc(-c3cn(C)c4ccc(Cl)cc34)[nH]2)c2cc(Cl)ccc21 ?
A: true (1)

---

System: NCI-H322M lung
Assay Details: NCI-60 one-dose screen, 48 h
Test Parameters: 10 µM unless noted
Protocol: Growth inhibition of the NCI-H322M human Non-Small Cell Lung tumor cell line is measured as a screen for anti-cancer activity. Cells are grown in 96 well plates and exposed to the test compound for 48 hours. Compounds are tested at a single concentration, which is 10^-5 M for most compounds. The reported endpoint is percent growth (GI% or GIPRCNT), where numbers from 0 - 100% represent growth inhibition, and numbers from -100% - 0 represent cell death. […]
This is part of a sample that, as a whole, favours compounds with a hit. Of some 83,000 tested, about 20% had one in any assay. The source made the active and inactive calls. The calls were made as follows: active = growth percent below 10; inactive = the rest.
Returns: one label drawn from active, inactive

Molecule	Study Target	Group
COc1ccc(C#Cc2ccc(=O)oc2-c2cc(OC)c(OC)c(OC)c2)cc1O	NCI-H322M lung	inactive
CC1=C(C(=O)Nc2ccccc2)C(c2ccc3c(c2)OCO3)NC(=S)N1 (stereo not given)	NCI-H322M lung	inactive
O=C(NCc1cccc(CNC(=O)Nc2nc3ccccc3[nH]2)c1)Nc1nc2ccccc2[nH]1	NCI-H322M lung	active
O=C(Nc1ccccc1N1CCCC1=O)c1oc2ccc(F)cc2c1-c1cnn(-c2ccccc2)c1	NCI-H322M lung	inactive

Q: Recorded test call requested for CCN1CCN(CC(=O)Nc2ccc(-c3cn4c(n3)sc3cc(Oc5ccnc(C(=O)NC)c5)ccc34)cc2)CC1
A: inactive

---

System: SK-MEL-5 melanoma
Assay Details: NCI-60 one-dose screen, 48 h (100 = growth as untreated, 0 = no growth, -100 = all killed)
Test Parameters: 10 µM unless noted
About 83,000 compounds went through this panel and 20% of them were active in at least one assay; those are over-represented in the sample as a whole. Active and inactive are the calls of the source. How the source made its calls: active means growth percent below 10; inactive means the rest.
Property: growth; scope: individual molecules

Molecule	growth
CCN(CC)c1ccc(/C=N/NC(=O)Cc2ccc(Nc3ccnc(C(F)(F)F)c3)cc2)c(O)c1	27.1% (inactive)
O=C(CCSc1nnc2n(Cc3ccccc3)c(=O)c3c4c(sc3n12)CCCC4)N1CCN(c2ccccc2)CC1	99.9% (inactive)

Q: Would you kindly share the measured growth for N#C/C(=C\c1cn(Cc2ccccc2)c2ccccc12)C(=O)Nc1ncc(Cc2ccccc2Cl)s1 ?
A: 57.6% (inactive)

Q: Please look up its growth: Fc1ccc2[nH]cc(-c3nc(-c4c[nH]c5ccncc45)cs3)c2c1
A: -94.6% (active)

Q: Given the entry O=C(CN1CCN(c2cc3c(cc2F)c(=O)c(C(=O)O)cn3C2CC2)CC1)N/N=C/c1ccco1 , report its measured growth.
A: 94.5% (inactive)

Q: Entry under review: CN1CCN(CC(=O)Nc2ccc3ncnc(Nc4ccc(Oc5cccc(C(F)(F)F)c5)c(Cl)c4)c3c2)CC1 . Reported growth?
A: -58% (active)

Q: I have this molecule here, O=S(=O)(Oc1ccc(Br)cc1)c1ccc(Cl)cc1 , and I need its recorded growth.
A: 101% (inactive)

Q: Could you tell me which growth is on file for NC(=O)c1c(NC(=O)c2cccs2)sc2c1CCC(=O)C2 ?
A: 71.5% (inactive)

Q: Which value of growth has been reported for O=C(Nc1ccccc1N1CCCC1=O)c1oc2ccc(F)cc2c1-c1cnn(-c2ccccc2)c1 in the records?
A: 10.6% [50 µM] (inactive)

Q: Please report the recorded growth for CN(C)CCCNC(=O)c1cncnc1Nc1ccc(OCc2cccc(F)c2)c(Cl)c1 .
A: 61.3% (inactive)

Q: What value of growth has been reported for the following molecule? C/C(=N\O)[C@@H]1CC[C@]2(CO)CC[C@]3(C)[C@H](CC[C@@H]4[C@@]5(C)CCCNC(C)(C)[C@@H]5CC[C@]43C)[C@@H]12
A: 84.1% (inactive)

Q: So what's the measured growth for this one? Cc1ccc(S(=O)(=O)Oc2ccc3sc4cccc(NCCN(C)C)c4c(=O)c3c2)cc1
A: -99% (active)

Q: Using the record for CS(=O)(=O)Nc1cc(-c2ccc3ncc(C#N)c(Nc4ccc(F)c(Cl)c4)c3c2)cnc1Cl , report its growth.
A: -90% (active)

---

Test system: PC-3 prostate
Assay Details: NCI-60 one-dose screen, 48 h (100 = growth as untreated, 0 = no growth, -100 = all killed)
Test Parameters: 10 µM unless noted
Compounds without any hit were thinned out: in the full panel of roughly 83,000, 20% have a hit. The source made the active and inactive calls. The calls were made as follows: active = growth percent below 10; inactive = the rest.
Measured Metric: growth

Q: Bench note: what growth did COC(=O)/C=C1/SC(=Nc2ccc([N+](=O)[O-])cc2)N(CCc2c[nH]c3ccc(O)cc23)C1=O show?
A: 38.6% (inactive)

Q: Using the record for CCN(CC)c1ccc(/C=N/NC(=O)Cc2ccc(Nc3ccnc(C(F)(F)F)c3)cc2)c(O)c1 , report its growth.
A: 53.3% (inactive)

---

Test system: SK-MEL-2 melanoma
Assay Details: NCI-60 one-dose screen, 48 h
Test Parameters: 10 µM unless noted
The panel holds about 83,000 compounds, 20% with a hit somewhere; the sample as a whole holds those more often. Activity calls are given as the source filed them. How the source made its calls: active means growth percent below 10; inactive means the rest.
Select the correct class. Options are true (active), false (inactive) and nothing else.

Molecule	Group
O=C1/C(=C/c2ccc(F)cc2)CN(C(=O)C(Cl)Cl)C/C1=C\c1ccc(F)cc1	true
O=C1/C(=C/c2ccccn2)NC(=S)N1c1ccccc1Cl	false
CC(C)(C)n1cc(-c2ccnc(NCCNS(=O)(=O)c3ccc(O)cc3)c2)c(-c2cccc(O)c2)n1	false

Q: Tell me the recorded outcome of this test for O=C(/C=C/c1ccc(Cl)cc1)c1cccc(OCCCOc2cccc(C(=O)/C=C/c3ccc(Cl)cc3)c2)c1 .
A: false

Q: Per the records of this test, what outcome belongs to NC1(CO)COC(c2ccccc2)OC1 (stereo unspecified) ?
A: false

Q: Recorded test call requested for COc1cccc(/C=C/C(=O)c2cc3c(N)c(C(=O)Nc4cccc5ccccc45)sc3nc2C)c1
A: false

Numbers sourced from PubChem BioAssay (NCI).
